The values you see were collected from ChEMBL document CHEMBL1201862.

tested on: UACC-62; assay: NCI tumour cell line growth inhibition, 48 h
Active and inactive are the calls of the source. Cut-off read from the data, not from the text of the source: active = GI50 up to about 1.1 µM and inactive = higher.
parameter: GI50

>  <compound>
O=C1C2=Cc3ccccc3CCN2c2ccc([N+](=O)[O-])cc21

>  <parameter>
GI50

>  <result>
55.5 µM (inactive)

$$$$
>  <compound>
CCC1NCC(=O)c2c1[nH]c1ccccc21 (stereo unspecified)

>  <parameter>
GI50

>  <result>
> 100 µM (inactive)

$$$$
>  <compound>
COc1cc(C2c3cc4c(cc3OC(N3CCOCC3)C2C)OCO4)cc(OC)c1O (stereo unspecified)

>  <parameter>
GI50

>  <result>
3.73 µM (inactive)

$$$$
>  <compound>
C=C1C(=O)O[C@@H]2C[C@@]3(C)CCC[C@H](C)C3=C[C@H]12

>  <parameter>
GI50

>  <result>
6.46 µM (inactive)

$$$$
>  <compound>
Nc1ncnc2c1ccn2C1OC2COP(=O)(O)OC2C1O (stereo unspecified)

>  <parameter>
GI50

>  <result>
0.0914 µM (active)

$$$$

QUERY: Would you kindly share the measured GI50 for Clc1nc(Cl)c(Cc2ccccc2)c(Cl)n1 ?
RESULT: 3.69 µM (inactive)

* * *

test system: HOP-18; assay: NCI tumour cell line growth inhibition, 48 h
Calls of active or inactive are those of the source. Cut-off read from the data, not from the text of the source: active = GI50 up to about 1.1 µM and inactive = higher.
parameter: GI50

>  <molecule>
COc1ccc2cc3[n+](cc2c1O)CCc1cc2c(cc1-3)OCO2 [BERBERRUBINE CHLORIDE]

>  <parameter>
GI50

>  <result>
> 100 µM (inactive)

$$$$
>  <molecule>
CCOP(=O)(OCC)/C(C#N)=C\c1ccc(OC(C)=O)cc1

>  <parameter>
GI50

>  <result>
> 100 µM (inactive)

$$$$
>  <molecule>
CCOC(=O)[C@H]1Nc2ccc(Cl)cc2[C@H]2CCC[C@@H]12

>  <parameter>
GI50

>  <result>
53.2 µM (inactive)

$$$$
>  <molecule>
OC1CC(O)O[C@H](c2ccccc2)C1 (stereo partly specified)

>  <parameter>
GI50

>  <result>
> 100 µM (inactive)

$$$$
>  <molecule>
COc1ccc(/C(Cl)=C(\C=O)c2ccc(Br)cc2)cc1OC

>  <parameter>
GI50

>  <result>
48.4 µM (inactive)

$$$$

# input for lookup
QUERY: Would you kindly share the measured GI50 for Cc1c(O)c(=O)ccn1CCO ?
RESULT: > 100 µM (inactive)

* * *

tested on: OVCAR-8; assay: NCI tumour cell line growth inhibition, 48 h
Active and inactive are the calls of the source. Cut-off read from the data, not from the text of the source: active = GI50 up to about 1.1 µM and inactive = higher.
// allowed return values: active, inactive

Reference set, count: 2
>  <compound>
COc1cc2c(SCCN(C)C)nc3ccccc3c2c2ccccc12

>  <qualitative_label>
inactive

$$$$
>  <compound>
O=c1ncc(F)cn1C1OC(CO)C(O)C1O (configuration not stated)

>  <qualitative_label>
inactive

$$$$

QUERY: Field: outcome | Entry: CC1=C(N(C)C)C(=O)c2nc3n(c2C1=O)CCC3OC(N)=O (configuration not stated)
RESULT: inactive

QUERY: Same question, CCCOC(=O)C1CCC(=O)N1C(=O)C(C)Cl (configuration not stated) this time
RESULT: inactive

QUERY: Same question, CC(=O)O[C@H]1C[C@H]2[C@@H]([C@H](OC(C)=O)C[C@@H]3CC4(CC[C@@]32C)OOC2(CCCCC2)OO4)[C@@H]2CC[C@H]([C@H](C)CCC(N)=O)[C@@]12C this time
RESULT: inactive

QUERY: Same question, CN(N=O)C(=N)NC(=O)c1ccccc1 this time
RESULT: inactive

QUERY: Same question, Cc1ccccc1Nc1nc(NNC(=O)Cc2ccccc2)nc(NNC(=O)c2ccncc2)n1 this time
RESULT: inactive

QUERY: Same question, CCOc1ccc(O)cc1[P+](c1ccccc1)(c1ccccc1)c1ccccc1 this time
RESULT: inactive

QUERY: Same question, O=C1C=CC(=O)c2c1cc([N+](=O)[O-])c1ccoc21 this time
RESULT: inactive

QUERY: Same question, COc1ccc2ccc3oc(=O)c(C)cc3c2c1 this time
RESULT: inactive

QUERY: Same question, COc1ccc(Cc2ccccc2C(=O)O)c2ccccc12 this time
RESULT: inactive

QUERY: Same question, O=S1(=O)CS(=O)(=O)OCCCCCO1 this time
RESULT: inactive

QUERY: Same question, O=C(CCCN1CCC(Nc2ccccc2)(c2nnnn2C2CCCCC2)CC1)c1ccc(F)cc1 this time
RESULT: inactive

QUERY: Same question, Oc1cnc2c(O)cccc2c1 this time
RESULT: inactive

QUERY: Same question, COC(=O)/C=C/c1ccc2nncnc2c1.COC(=O)/C=C\c1ccc2nncnc2c1 this time
RESULT: inactive

QUERY: Same question, O=C1C2C(c3ccccc3)NC(c3ccccc3)C1C(c1ccccc1)NC2c1ccccc1 (configuration not stated) this time
RESULT: inactive

QUERY: Same question, COc1ccc(OC)c(/C=C2\CCc3ccccc3C2=O)c1 this time
RESULT: inactive

QUERY: Same question, C/C(=N\N=C(\N)S)c1ccc(Oc2ccccc2)cc1 this time
RESULT: inactive
